Reference source: PubChem BioAssay

assay: binders of probe aFGF2 on microarray, primary screen, stem cell growth factor project, biochemical, small-molecule microarray, fluorescence 635/667 (AID 1067); conditions: higher = more signal;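 further: measures binding of biotinylated aFGF2 protein to printed compounds on slides; z-score merges feature fluorescence and signal-to-noise across triplicate slides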
quantity_kind: composite z-score

Exercise: State its composite z-score for this molecule: `COC(=O)[C@@H]1CC[C@H](C)[C@@H](c2ccc(C)cc2)N1C(=O)c1ccc(C=NO[C@H](C)c2cn([C@@H]3COC[C@H]3O)nn2)cc1`
Key: -0.0459

###

assay: FRG1 promoter luciferase signal modulators, primary screen, FRG1 inhibition for FSHD, cell-based, C2C12 myotubes, firefly/Renilla luciferase, luminescence (AID 1084); conditions: higher = more signal, called active from +8 up or from −8 down
The threshold is inclusive: z-score of exactly 0.7 counts as 1; values below receive 0.

Exercise: Is the recorded value of z-score equal to or greater than 0.7 for this compound? `C=CC[C@@H]1C=C[C@H](ON=C(C)CCN2CCc3nc(-c4ccccc4)c(-c4ccccc4)cc3C2)[C@@H](CO)O1`
Key: 1

Exercise: Please check the record `CCCCC#C[C@@H]1C=C[C@H](OC(C)=O)[C@@H](COC(C)=O)O1` and state if its z-score is at or above 0.7.
Key: 0

###

target: NADPH oxidase 5 (Homo sapiens) (UniProt Q96PH1); test: NOX5-dependent H2O2 signal modulators, primary screen, NOX inhibitor project, cell-based, HEK293-NOX5, Amplex Red fluorescence (AID 1161); details: HEK293-NOX5, ionomycin, 45 min, higher = more signal
Sequence (Q96PH1 whole entry, looked up): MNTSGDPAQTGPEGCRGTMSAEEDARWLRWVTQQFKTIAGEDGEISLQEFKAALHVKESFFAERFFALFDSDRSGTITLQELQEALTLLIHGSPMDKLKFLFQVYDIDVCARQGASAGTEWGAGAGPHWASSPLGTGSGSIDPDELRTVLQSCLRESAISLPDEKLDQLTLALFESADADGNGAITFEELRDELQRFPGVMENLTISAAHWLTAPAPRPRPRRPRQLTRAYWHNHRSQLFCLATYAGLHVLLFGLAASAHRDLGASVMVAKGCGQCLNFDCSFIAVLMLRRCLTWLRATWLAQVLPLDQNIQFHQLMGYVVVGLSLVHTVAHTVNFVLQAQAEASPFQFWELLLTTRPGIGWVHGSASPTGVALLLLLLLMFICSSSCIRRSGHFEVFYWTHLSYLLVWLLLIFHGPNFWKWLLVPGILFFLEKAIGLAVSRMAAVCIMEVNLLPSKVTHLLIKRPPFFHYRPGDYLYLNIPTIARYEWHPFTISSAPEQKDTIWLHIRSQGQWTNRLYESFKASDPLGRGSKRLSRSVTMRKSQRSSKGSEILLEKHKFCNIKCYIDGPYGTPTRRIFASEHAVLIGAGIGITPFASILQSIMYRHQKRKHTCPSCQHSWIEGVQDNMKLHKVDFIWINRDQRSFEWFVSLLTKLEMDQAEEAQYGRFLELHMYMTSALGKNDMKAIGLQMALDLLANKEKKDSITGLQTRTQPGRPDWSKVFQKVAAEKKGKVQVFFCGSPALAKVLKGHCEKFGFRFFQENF
Parameter: z-score. Scope: all listed entries.

Exercise: Annotate the compound `COC(=O)CC=C[C@@H](C)[C@@H](C=NO[C@@H]1O[C@H](COC(C)=O)[C@@H](OC(C)=O)[C@H](OC(C)=O)[C@H]1OC(C)=O)NS(=O)(=O)c1ccc(C)cc1` with its measured z-score.
Key: 0.569

Exercise: Return z-score (reported value) for this compound: `C#CCCCON=C1C[C@@H](O)[C@@H](O)[C@@H]2[C@@H]3C(=O)N(c4cccc(Oc5ccccc5)c4)C(=O)[C@@H]3CC[C@H]12`
Key: -0.676

###

target: Fibroblast growth factor 10 (Homo sapiens); test: FGF10 binders on small-molecule microarrays, primary screen, biochemical, small-molecule microarray, 635 nm fluorescence (AID 1102); conditions: FGF10 binding, fluorescence 635 nm, higher = more signal
quantity_kind: composite z-score
API note: the answer field is a bare number with no unit suffix.

{"compound": "COc1ccc(O[C@H]2C=C[C@@H](c3ccccc3)O[C@@H]2CON=C2[C@H]3CCn4c(=O)n(-c5ccccc5)c(=O)n4[C@H]3[C@H](O)[C@@H]3O[C@H]23)cc1", "composite z-score": 0.464}
{"compound": "CC(CCN1CCCc2nc(C)c(C)cc21)=NOC(C)CN1CCCCc2nc(C)c(C)cc21 (stereo unspecified)", "composite z-score": 1.14}
{"compound": "CC(C)CON=C1C[C@@H](O)[C@@H](O)[C@@H]2[C@@H]3C(=O)N(C4CCCCC4)C(=O)[C@@H]3CC[C@@H]12", "composite z-score": -0.0852}
{"compound": "CCN1C(=O)[C@H]2[C@H]3[C@H](O)[C@H](O)CC(=O)[C@H]3CC[C@H]2C1=O", "composite z-score": 0.406}
{"compound": "CC(=O)Nc1ccc([C@@H]2N[C@H](C(=O)O)CC[C@H]2C)cc1", "composite z-score": 0.32}
{"compound": "C[C@H](ON=C1[C@H]2CCn3c(=O)n(-c4ccccc4)c(=O)n3[C@H]2[C@H](O)[C@@H]2O[C@H]12)c1cn([C@H](CO)Cc2ccccc2)nn1", "composite z-score": 0.513}
{"compound": "COC(=O)[C@@H]1CC[C@H](C)[C@@H](c2ccc(C)cc2)N1C(=O)c1ccc(C=NOCC[C@@H]2C=C[C@H](OC(C)=O)[C@@H](COC(C)=O)O2)cc1", "composite z-score": 0.402}
{"compound": "CC(C)=CCCC(C)=CCON=C1C[C@@H](O)[C@@H](O)[C@@H]2[C@@H]3C(=O)N(c4cccc(Oc5ccccc5)c4)C(=O)[C@@H]3CC[C@@H]12", "composite z-score": 0.612}
{"compound": "C[C@H]1CC[C@H]2C(=O)O[C@H](COc3ccc(C(C)(C)C)cc3)CN2[C@@H]1c1ccc(Br)cc1", "composite z-score": 0.0311}
{"compound": "CC1O[C@H]2C3=C(C(=O)[C@@H]4O[C@@H]4[C@H]3O)[C@@H]1C1[C@@H](C)OC=C3[C@H](O)C4O[C@@H]4C(=NOCc4ccccc4)[C@]312 (stereo partly specified)", "composite z-score": 0.0791}

Exercise: Answer with reported composite z-score of `CC(C)=NO[C@H](C)c1cn([C@H](CO)Cc2ccccc2)nn1`
Key: 0.443

Exercise: Provide measured composite z-score value, entry: CCOC(=O)[C@H](Cc1ccccc1)NC(=O)CCC1CC(OC(=O)NCc2cccc3ccccc23)CC2(CCCC(COC(=O)NCCC(C)C)O2)O1 (stereo partly specified)
Key: 0.143
